Test system: CD2F1 mice, L1210 leukemia ip, survival T/C
Method: NCI In Vivo Anticancer Drug Screen. Data for tumor model L1210 Leukemia (intraperitoneal) in CD2F1 (CDF1) mice
Test settings: endpoint: mean survival time; dose: 100.0 mg/kg/injection; schedule: Q01DX009 (ip); vehicle: Klucel (hydroxypropylcellulose) (HPC); higher = longer survival
Inconclusive results and toxic doses are left out.
Readout label: T/C

Exam item: Request body: readout T/C, system CD2F1 mice, L1210 leukemia ip, survival T/C, query CC(C)(C)CC(C)(C)c1ccc(OCCOc2ccc(C(=O)Nc3ccc([N+](=O)[O-])cc3)cc2)cc1 . Return the value.
Marked response: 87 % of control

Exam item: Request body: readout T/C, system CD2F1 mice, L1210 leukemia ip, survival T/C, query Cc1ccc(NC(=O)Oc2cc(C)c(Cl)cc2C)c([N+](=O)[O-])c1 . Return the value.
Marked response: 106 % of control

Exam item: Request body: readout T/C, system CD2F1 mice, L1210 leukemia ip, survival T/C, query C=CCC(C(=O)O)(c1ccccc1)c1ccccc1 . Return the value.
Marked response: 98 % of control

Exam item: Request body: readout T/C, system CD2F1 mice, L1210 leukemia ip, survival T/C, query O=[N+]([O-])c1ccc2c(c1)-c1[nH]c3ccccc3c1CS2 . Return the value.
Marked response: 102 % of control

Exam item: Request body: readout T/C, system CD2F1 mice, L1210 leukemia ip, survival T/C, query O=C(Nc1ccc(F)c(Cl)c1)N(CCO)C1CCCCC1 . Return the value.
Marked response: 102 % of control

Exam item: Request body: readout T/C, system CD2F1 mice, L1210 leukemia ip, survival T/C, query COC(=O)/C(=N\NS(=O)(=O)c1ccc(C)cc1)c1ccccc1 . Return the value.
Marked response: 102 % of control
